# system-name: human STAT6 (Homo sapiens (Human))
# Sequence (P42226 122-658): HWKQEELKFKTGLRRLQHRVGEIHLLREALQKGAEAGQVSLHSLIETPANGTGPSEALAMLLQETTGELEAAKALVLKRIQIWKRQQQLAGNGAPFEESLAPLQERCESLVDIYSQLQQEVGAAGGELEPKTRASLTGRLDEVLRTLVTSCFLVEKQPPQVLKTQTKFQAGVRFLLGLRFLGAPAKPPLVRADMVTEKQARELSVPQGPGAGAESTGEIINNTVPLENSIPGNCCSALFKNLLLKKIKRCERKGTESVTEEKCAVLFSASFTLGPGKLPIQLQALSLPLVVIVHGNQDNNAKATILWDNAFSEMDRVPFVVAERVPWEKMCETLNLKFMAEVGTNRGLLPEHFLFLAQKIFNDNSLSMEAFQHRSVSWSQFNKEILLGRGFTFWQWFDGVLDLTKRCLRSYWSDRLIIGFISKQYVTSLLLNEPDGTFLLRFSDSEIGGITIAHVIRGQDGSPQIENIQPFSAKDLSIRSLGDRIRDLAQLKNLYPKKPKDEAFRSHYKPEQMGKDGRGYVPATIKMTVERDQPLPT
pKd: −log10 of the molar value.
quantity-name: pKd

Solved cases (5 shown):
>  <compound>
CN(C)C(=O)c1ccc(C2CCN(Cc3cc4c(-c5cnc(N)nn5)ccnc4n3C)CC2)cc1 [Example 1k54]

>  <quantity-name>
pKd

>  <assay-result>
6.98

$$$$
>  <compound>
COC(=O)CNc1ccc(-c2ccnc3c2cc(CN2CCC(c4ccc(C(=O)N(C)C)cc4)CC2)n3C)cn1 [Example 1k26]

>  <quantity-name>
pKd

>  <assay-result>
7.77

$$$$
>  <compound>
CN(C)C(=O)c1ccc(C2CCN(Cc3cc4c(-c5cnc(N)c(C(=O)O)c5)ccnc4n3C)CC2)cc1 [Example 1k9]

>  <quantity-name>
pKd

>  <assay-result>
6.84

$$$$
>  <compound>
[2H]C([2H])([2H])N(C(=O)c1ccc(C2=CCN([C@@H](C)c3cc4c(-c5ccc(N)cn5)ccnc4n3C)CC2)c(C)c1)C([2H])([2H])[2H] [Example 1af31]

>  <quantity-name>
pKd

>  <assay-result>
6.77

$$$$
>  <compound>
CNc1ccc(-c2ccnc3c2cc(CN2CCC(F)(c4ccc(C(=O)N(C)C)cc4)CC2)n3C)cn1 [Example 1s26]

>  <quantity-name>
pKd

>  <assay-result>
7.21

$$$$

A: CNC(=O)c1ccc(C2CCN(Cc3cc4c(-c5ccc(N)nc5C#N)ccnc4n3C)CC2)cc1 [Example 1ae14]
B: [2H]C([2H])([2H])N(C(=O)c1ccc(C2CCN([C@@H](C)c3cc4c(-c5ccc(N)cn5)ccnc4n3C)CC2)cc1)C([2H])([2H])[2H] [Example 1af35]
C: [2H]C([2H])([2H])N(C(=O)c1ccc(C2CCN([C@@H](C)c3cc4c(-c5ccc(N)nc5C#N)ccnc4n3C)CC2)c(C)c1)C([2H])([2H])[2H] [Example 1af37]
D: CC(=O)Nc1ccc(-c2ccnc3c2cc(CN2CC[C@H](c4ccc(C(=O)N(C)C)cc4)[C@@H](C)C2=O)n3C)cc1 (single isomer, unassigned) [1aa2′]
E: CNc1ccc(-c2ccnc3c2cc([C@H](C)N2CCC(c4ccc(C(=O)N(C)C)cc4)CC2)n3C)nc1 [Example 1o24]
Prompt: In this exercise, place the 5 compounds in ascending sequence of their recorded pKd. Answer by naming the labels in the order asked.
Response: B, A, D, C, E
(B: 6.22, A: 6.71, D: 6.94, C: 7.24, E: 7.51)

----------
# System: Eotaxin-3 (CCL26) release in human whole blood stimulated with IL-4
# assay-remarks: Human whole blood eotaxin-3 assay (IL-4 stimulated, Eotaxin-3 release)
# Assay type: cell-based
# study-conditions: Homo sapiens, Hec50, 48 h
quantity-name: EC50 (nM)

Recorded EC50, per entry:
>  <compound>
CNc1ccc(-c2ccnc3c2cc(CN2CC=C(c4ccc(C(=O)N(C)C)cc4OC)CC2)n3C)nn1 [Example 1p14]

>  <units>
nM

>  <assay-result>
3200

$$$$
>  <compound>
CNc1ccc(-c2ccnc3c2cc(CN2CC=C(c4ccc(C(=O)N(C)C)cc4C)CC2)n3C)[n+]([O-])c1 [Example 1u3]

>  <units>
nM

>  <assay-result>
104

$$$$
>  <compound>
[2H]C([2H])([2H])N(C(=O)c1cc(C)c(C2=CCN([C@@H](C)c3cc4c(-c5ccc(N)nn5)ccnc4n3C)CC2)c(F)c1)C([2H])([2H])[2H] [Example 1af81]

>  <units>
nM

>  <assay-result>
12.6

$$$$

I: [2H]C([2H])([2H])N(C(=O)c1ccc(C2CCN([C@H](C)c3cc4c(-c5ccc(N)cn5)ccnc4n3C)CC2)cc1)C([2H])([2H])[2H] [Example 1af36]
II: CNc1ccc(-c2ccnc3c2cc(CN2CCN(c4ccc(C(=O)N(C)C)cc4C)CC2)n3C)nn1 [Example 1p3]
III: C[C@H](c1cc2c(-c3ccc(N)nc3C#N)ccnc2n1C)N1CCC(c2ccc(C(=O)N(C)C)cc2)CC1 [Example 1af14]
Prompt: # desc sort on EC50 across 3 compounds Your task in answering is to list the labels in the requested order.
Response: I, II, III
(I: 404 nM, II: 232 nM, III: 135 nM)

1: CNc1ccc(-c2ccnc3c2cc(CN2CCC(c4ccc(C(=O)N(C)C)cc4)CC2)n3S(C)(=O)=O)cn1 [Example 1x1]
2: CNc1ccc(-c2ccnc3c2cc(CN2CC=C(c4ncc(C(=O)N(C)C)cc4C)CC2)n3C)nn1 [Example 1p11]
Prompt: Between item 1 and item 2 , which reported EC50 is smaller? Respond using the label that marks the chosen record.
Response: 1

P: CNc1ccc(-c2ccnc3c2cc(CN2CCN(c4ccc(C(=O)N(C)C)cc4)CC2)n3C)nn1 [Example 1p1]
Q: Cc1cc(C(=O)N(C)C)cc(C)c1C1=CCN(Cc2cc3c(-c4ccc(N)nn4)ccnc3n2C)CC1 [Example 1z12]
R: CN(C)C(=O)c1ccc(C2=CCN(Cc3cc4c(-c5ccc(N)nn5)ccnc4n3C)CC2)cc1 [Example 1z1]
S: CNc1ccc(-c2ccnc3c2cc([C@@H](C)N2CCC(c4ccc(C(=O)N(C)C)cc4)CC2)n3C)c(C#N)n1 [Example 1af40]
Prompt: # sort list by recorded EC50, greatest to least // format: requested-order list of labels
Response: P, S, Q, R
(P: 76000 nM, S: 44400 nM, Q: 57 nM, R: 5.76 nM)

A: [2H]C([2H])([2H])N(C(=O)c1ccc(C2CCN([C@H](C)c3cc4c(-c5ccc(N)cn5)ccnc4n3C)CC2)c(C)c1)C([2H])([2H])[2H] [Example 1af42]
B: Cc1cc(C(=O)N(C)C)cc(F)c1C1=CCN(C(C)c2cc3c(-c4ccc(N)nc4)ccnc3n2C)CC1 (centres unmarked) [Example 1z28]
Prompt: Which shows the larger EC50 value: A or B ? Respond using the label that marks the chosen record.
Response: A

----------
# system-name: UniProt P42226
# assay-remarks: Surface plasmon resonance assay (Biacore 8K, binding to immobilized STAT6)
# study-conditions: human STAT6 aa122-658, N-terminal His-tag, CM5 chip, 25° C.; geometric mean; read-out: STAT6 SPR Kd
quantity-name: Kd (nM)

>  <chem-smiles>
CN(C)C(=O)c1ccc(C2CCN(Cc3cc4c(-c5ccc(N)nc5C#N)ccnc4n3C)CC2)cc1

>  <Kd, nM>
31.4

$$$$

a: CN(C)C(=O)c1ccc(C2CCN(Cc3cc4c(-c5cnc(N)c(C(F)F)c5)ccnc4n3C)CC2)cc1
b: CNc1ccc(-c2ccnc3c2cc(CN2CC[C@@H](c4ccc(C(=O)N(C)C)cc4)C[C@H]2C)n3C)nc1
Prompt: For the pair a and b , which member has the lower Kd number? Kindly state the label of the option you pick.
Response: b

----------
# system-name: human STAT6 (Homo sapiens (Human))
pKd: −log10 of the molar value.
quantity-name: pKd

>  <chem-smiles>
CN(C)C(=O)c1ccc(C2CCN(Cc3cc4c(-c5cnc(N)c(C#N)n5)ccnc4n3C)CC2)cc1

>  <pKd>
6.12

$$$$
>  <chem-smiles>
[2H]C([2H])([2H])N(C(=O)c1ccc(C2=CCN([C@@H](C)c3cc4c(-c5ccc(N)cn5)ccnc4n3C)CC2)cc1)C([2H])([2H])[2H]

>  <pKd>
5.53

$$$$
>  <chem-smiles>
C[C@H]1CN(c2ccc(C(=O)N(C)C)cc2)CCN1Cc1cc2c(-c3ccc(N)nc3)ccnc2n1C

>  <pKd>
7.16

$$$$
>  <chem-smiles>
CNc1ccc(-c2ccnc3c2cc(CN2CCC(c4ccc(C(=O)N(C)C)cc4)CC2)n3C(C)C)cn1

>  <pKd>
5.56

$$$$

P: CNc1ccc(-c2ccnc3c2cc(CN2CCN(c4ccc(C(=O)N(C)C)cc4)CC2=O)n3C)cn1
Q: COc1c(N)ncc(-c2ccnc3c2cc(CN2CCC(c4ccc(C(=O)N(C)C)cc4)CC2)n3C)c1C
Prompt: Among P and Q , which shows a numerically higher pKd result? Answer with the label corresponding to your selection.
Response: P
(P: 7.15, Q: 6.13)

----------
# Test system: Eotaxin-3 (CCL26) release in human whole blood stimulated with IL-4
# assay-remarks: Human whole blood eotaxin-3 assay (IL-4 stimulated, Eotaxin-3 release)
# Format: cell-based
# study-conditions: Homo sapiens, Hec50, 48 h
# Method: This was a human whole blood assay using recombinant human Interleukin 4 to stimulate the blood and measuring the ability of the test compounds to inhibit eotaxin-3 release. The biological activities of the test compounds have been tested in human whole blood stimulated with IL-4 measuring Eotaxin-3 release. The test compounds were added to 384 well clear flat-bottom plate in a 4-fold serial dilution in triplicates using a liquid handler. […]
quantity-name: EC50 (nM)

Consider the worked cases shown below.
>  <chem-smiles>
CN(C)C(=O)c1cc(F)c(C2=CCN(Cc3cc4c(-c5ccc(N)cn5)ccnc4n3C)CC2)c(F)c1

>  <EC50 / nM>
368

$$$$
>  <chem-smiles>
[2H]C([2H])([2H])N(C(=O)c1ccc(C2=CCN([C@@H](C)c3cc4c(-c5cnc(N)cc5F)ccnc4n3C)CC2)cc1)C([2H])([2H])[2H]

>  <EC50 / nM>
426

$$$$
>  <chem-smiles>
[2H]C([2H])([2H])N(C(=O)c1ccc(C2=CCN(Cc3cc4c(-c5ccc(NC)nn5)ccnc4n3C)CC2)c(C)c1)C([2H])([2H])[2H]

>  <EC50 / nM>
504

$$$$

a: CNc1ccc(-c2ccnc3c2cc(CN2CC=C(c4ccc(C(=O)N(C)C)cc4C)CC2)n3C)nn1
b: CNc1ccc(-c2ccnc3c2cc(CN2CCC(c4c(C)cc(C(=O)N(C)C)cc4C)CC2)n3C)cn1
c: COc1nc(N)ccc1-c1ccnc2c1cc(CN1CCC(c3ccc(C(=O)N(C)C)cc3)CC1)n2C
d: CNc1ccc(-c2ccnc3c2cc([C@@H](C)N2CC=C(c4c(C)cc(C(=O)N(C)C)cc4F)CC2)n3C)cn1
Prompt: Write the entries in order, lowest recorded EC50 first. Rank them, then answer with their labels in that order.
Response: d, b, a, c
